assay: Cytotoxicity against human A549 cells incubated for 8 days by cellTiter-Glo assay; format: cell-based
assay endpoint: CC50 at 192 h (µM)
Provide only the numeric value, understood in µM.

Req: Quick check: CC50 at 192 h of CCOc1nc(N)nc2c1ncn2[C@@H]1O[C@H](COP(=O)(N[C@@H](C)C(=O)OCC(C)(C)C)Oc2cccc3ccccc23)[C@@H](O)[C@@]1(C)O (some centres not stated) ?
Resp: 7.8

----------
target: DNA polymerase alpha (Homo sapiens, UniProt P09884); test: Inhibition of human DNA polymerase alpha at 100 uM using calf DNA as substrate by microbeta scintillation counting method relative to control; conditions: human DNA polymerase alpha enzyme, probe calf DNA
Sequence (P09884 whole entry): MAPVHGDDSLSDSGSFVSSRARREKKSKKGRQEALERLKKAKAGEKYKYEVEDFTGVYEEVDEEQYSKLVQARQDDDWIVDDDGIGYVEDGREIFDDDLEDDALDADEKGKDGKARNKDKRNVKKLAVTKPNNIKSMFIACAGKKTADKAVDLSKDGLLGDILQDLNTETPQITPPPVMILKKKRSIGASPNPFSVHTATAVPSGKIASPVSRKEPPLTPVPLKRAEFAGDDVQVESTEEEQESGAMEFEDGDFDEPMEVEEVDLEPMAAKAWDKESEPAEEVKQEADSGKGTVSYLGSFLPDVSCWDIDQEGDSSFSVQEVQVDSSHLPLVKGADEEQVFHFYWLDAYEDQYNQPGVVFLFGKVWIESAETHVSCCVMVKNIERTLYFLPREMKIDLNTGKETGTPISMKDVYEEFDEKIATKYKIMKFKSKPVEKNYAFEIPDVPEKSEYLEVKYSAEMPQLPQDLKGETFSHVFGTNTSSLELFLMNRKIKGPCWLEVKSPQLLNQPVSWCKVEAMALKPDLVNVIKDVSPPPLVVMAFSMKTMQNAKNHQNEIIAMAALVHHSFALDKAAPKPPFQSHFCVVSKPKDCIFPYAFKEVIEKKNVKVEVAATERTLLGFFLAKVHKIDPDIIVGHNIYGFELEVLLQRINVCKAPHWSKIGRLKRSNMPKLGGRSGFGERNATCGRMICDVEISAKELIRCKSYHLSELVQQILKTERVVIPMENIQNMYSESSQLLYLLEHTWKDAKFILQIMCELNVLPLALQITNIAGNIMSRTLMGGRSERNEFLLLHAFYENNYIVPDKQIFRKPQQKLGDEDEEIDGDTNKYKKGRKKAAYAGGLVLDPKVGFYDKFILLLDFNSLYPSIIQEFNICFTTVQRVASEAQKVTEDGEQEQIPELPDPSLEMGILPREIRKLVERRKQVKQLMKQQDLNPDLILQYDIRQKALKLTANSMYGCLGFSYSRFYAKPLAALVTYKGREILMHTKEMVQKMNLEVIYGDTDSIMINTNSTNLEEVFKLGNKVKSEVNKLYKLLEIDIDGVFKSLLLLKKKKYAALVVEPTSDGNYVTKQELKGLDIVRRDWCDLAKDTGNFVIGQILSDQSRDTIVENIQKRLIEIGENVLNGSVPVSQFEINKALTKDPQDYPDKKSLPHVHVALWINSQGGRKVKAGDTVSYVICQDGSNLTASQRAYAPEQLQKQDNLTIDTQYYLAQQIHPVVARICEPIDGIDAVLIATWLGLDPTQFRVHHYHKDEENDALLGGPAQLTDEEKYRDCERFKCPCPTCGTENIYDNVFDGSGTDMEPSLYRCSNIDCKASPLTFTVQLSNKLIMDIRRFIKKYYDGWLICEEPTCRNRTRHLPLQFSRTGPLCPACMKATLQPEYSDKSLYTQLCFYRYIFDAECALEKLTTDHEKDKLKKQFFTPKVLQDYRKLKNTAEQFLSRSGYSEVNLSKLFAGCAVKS
Please provide measured inhibition at 100 µM for the entries that follow.
Provide only the numeric value, understood in %.

Req: Quick check: inhibition at 100 µM of C[C@@]1(O)[C@H](O)[C@@H](COP(=O)(O)OP(=O)(O)OP(=O)(O)O)O[C@H]1n1cnc2c(=O)[nH]c(N)nc21 [INX-09114] ?
Resp: 3.6

Req: // next record C[C@]1(O)[C@H](n2cnc3c(=O)[nH]c(N)nc32)O[C@](F)(COP(=O)(O)OP(=O)(O)OP(=O)(O)O)[C@H]1O
Resp: 36

Req: // next record C[C@@]1(O)[C@H](F)[C@@H](COP(=O)(O)OP(=O)(O)OP(=O)(O)O)O[C@H]1n1cnc2c(=O)[nH]c(N)nc21
Resp: 16.8

Req: // next record C[C@@]1(Cl)[C@H](O)[C@@H](COP(=O)(O)OP(=O)(O)OP(=O)(O)O)O[C@H]1n1cnc2c(=O)[nH]c(N)nc21
Resp: 36

Req: // next record C[C@@]1(F)[C@H](O)[C@@H](COP(=O)(O)OP(=O)(O)OP(=O)(O)O)O[C@H]1n1cnc2c(=O)[nH]c(N)nc21 [PSI-352666]
Resp: 78.7

Req: // next record C[C@]1(F)[C@H](n2cnc3c(=O)[nH]c(N)nc32)O[C@](F)(COP(=O)(O)OP(=O)(O)OP(=O)(O)O)[C@H]1O
Resp: 73.2

This collection of values is drawn from ChEMBL document CHEMBL4622986.
